Molecular target: cytochrome c oxidase (CcO, complex IV), purified from bovine heart; COX4-1 the most abundant COX4 isoform (Bos taurus, UniProt P00396+P00423)
Construct: purified CcO from bovine heart (Sigma-Aldrich C5499), whole multi-subunit complex; with COX1 and the other CcO subunits
Test: inhibition of purified CcO activity, dose-response
Observation Type: IC50 (µM)
Give the number; µM is assumed, so skip it.

input: # lookup: IC50 of CN(C)CCCN1c2ccccc2Sc2ccc(Cl)cc21 [CPZ, Chlorpromazine]
output: 25.8
